Could you please report measured abundance fitness for the items listed next?
B1: Gamma-crystallin C, residues 91 to 170; numbered along this chain, P07315 (parent)
chain: RLYEREDHKGLMMELSEDCPSIQDRFHLSEIRSLHVLEGCWVLYELPNYRGRQYLLRPQEYRRCQDWGAMDAKAGSLRRV

- Variants of: B1
- MEASUREMENT_DESCRIPTION: abundance fitness (aPCA) (normalised: wild type 0, dead -1); higher = more abundant; growth selection in yeast, the domain comes from the species named
- MEASUREMENT_CONDITIONS: Homo sapiens

Lookup: Form field: reported abundance fitness of H27V
Found: -0.602

Lookup: Item: R32W
Found: -0.631

Lookup: Same question for Q59V please.
Found: -0.266

Lookup: Let us now turn to L46N
Found: -0.767

Lookup: Now give it for E17C too.
Found: -0.168

Lookup: // repeat for L55T and report
Found: 0.1

Lookup: Same lookup for L11R , please.
Found: -0.031

Lookup: Lookup E6Q
Found: -0.445

Lookup: Please give the result for D24N too.
Found: -0.183

Lookup: Note, next up: R25S
Found: -0.078

Lookup: Subsequent entry: E30I
Found: -0.458

Lookup: What would you report for D71A ?
Found: -0.483

Lookup: Could you do the same for D18P , please?
Found: -0.66

Lookup: Consider next the variant L28I in the same way.
Found: 0.093

Lookup: Follow-up item: Q59K
Found: 0.135

Lookup: And P20R ?
Found: -0.44

Lookup: What about this variant? M12N
Found: -0.11

Lookup: Again, but for L77C
Found: -0.325

Lookup: Queued: H27M
Found: -0.075

Lookup: Cool, now R57D
Found: -0.174

Lookup: Here is the next variant: L11N
Found: 0.018

Lookup: Please give the result for C40G too.
Found: -0.186

Lookup: Okay, and S21D ?
Found: -0.07

Lookup: Now the same for Q59P
Found: -0.994

Lookup: Could you do the same for G68P , please?
Found: -0.784

Lookup: Next entry: L56I
Found: -0.515

Lookup: Please answer likewise for Y3L
Found: -1.04

Lookup: Now try Y49E .
Found: -0.734

Lookup: Now consider P58D .
Found: -0.167

Lookup: Consider next the variant E17D in the same way.
Found: -0.035

Lookup: Try this variant too: D71H
Found: -0.173

Lookup: Same for Y54S
Found: -0.614

Lookup: Follow-up item: R62T
Found: -0.262

Lookup: Here is the next variant: L2T
Found: -0.622

Lookup: Same question, A72W this time
Found: -0.365

Lookup: Next variant: R52I
Found: -0.31

Lookup: Now the same for G75D
Found: -0.705

Lookup: Okay, and S33M ?
Found: -0.673

Lookup: Thanks! And D7C ?
Found: -0.237

Lookup: Same again, this time with G10F
Found: -0.717

Lookup: Moving on to D66H
Found: -0.548

Lookup: Can you handle L11W next?
Found: -0.289

Lookup: Another variant: L15S
Found: -0.832

Lookup: Item: R25K
Found: -0.07

Lookup: Please answer likewise for D66W
Found: -0.639

Lookup: Next up: C64Q
Found: -0.795

Lookup: // repeat for L37S and report
Found: -0.372
